Entries and their Radioactivity
Organism: Rattus norvegicus
Assay: Percent of compound radioactivity ([3H]-Ap4A Degradation), in presence of added Ap(s)pCHClpp(s)A, in heparinized rat plasma
Format: functional
Parameters: concentration or dose not given beside the values
Lab book: enter the figure in %, no units written.

Below are worked cases with known answers.
entry.smiles	Radioactivity / %
Nc1ncnc2c1ncn2[C@@H]1O[C@H](COP(=O)(O)OP(=O)(O)O)[C@@H](O)[C@H]1O	30.6
Nc1ncnc2c1ncn2[C@@H]1O[C@H](COP(=O)(O)OP(=O)(O)OP(=O)(O)OP(=O)(O)OC[C@H]2O[C@@H](n3cnc4c(N)ncnc43)[C@H](O)[C@@H]2O)[C@@H](O)[C@H]1O	26.5
Nc1ncnc2c1ncn2[C@@H]1O[C@H](COP(=O)(O)OP(=O)(O)OP(=O)(O)O)[C@@H](O)[C@H]1O	40.5

Shifting focus to the compound that follows.
Sample Nc1ncnc2c1ncn2[C@@H]1O[C@H](COP(=O)(O)O)[C@@H](O)[C@H]1O — what was its Radioactivity?
2.31

Hey, just so you know, these numbers are from ChEMBL document CHEMBL1144917.
